- Study target: Kv1.5 (Homo sapiens)
- Sequence (P22460 whole entry): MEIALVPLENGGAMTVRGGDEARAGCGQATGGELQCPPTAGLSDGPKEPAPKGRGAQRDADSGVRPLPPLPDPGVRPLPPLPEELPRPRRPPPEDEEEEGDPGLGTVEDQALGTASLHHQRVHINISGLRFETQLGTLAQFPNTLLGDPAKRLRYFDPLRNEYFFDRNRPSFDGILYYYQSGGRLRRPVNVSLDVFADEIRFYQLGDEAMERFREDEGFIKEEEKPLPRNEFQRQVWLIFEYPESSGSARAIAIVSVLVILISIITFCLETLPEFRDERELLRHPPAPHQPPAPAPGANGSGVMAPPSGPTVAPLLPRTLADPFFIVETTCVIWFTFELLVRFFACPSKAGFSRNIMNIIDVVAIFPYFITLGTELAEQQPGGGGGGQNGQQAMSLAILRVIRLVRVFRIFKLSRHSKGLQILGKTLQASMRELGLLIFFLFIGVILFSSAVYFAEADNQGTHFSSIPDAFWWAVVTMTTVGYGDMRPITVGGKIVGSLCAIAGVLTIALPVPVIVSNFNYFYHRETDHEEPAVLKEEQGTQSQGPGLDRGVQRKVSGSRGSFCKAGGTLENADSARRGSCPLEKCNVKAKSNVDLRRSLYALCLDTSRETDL
- Assay explanation: Kv1.5 inhibition assay (IKur inhibitor assay per cited references)
- Type: cell-based
- Condition description: at 0.3 μM
Readout name: Kv1.5% inhibition (%)

>>> value_observed("CC1=C(S(=O)(=O)NCc2ccccc2)C(c2ccc(Cl)c(Cl)c2)n2nc(C(F)(F)F)cc2N1 (single isomer, unassigned) [Example 56 Isomer 2]")
37.5
>>> value_observed("CC1=C(S(=O)(=O)N2CCCC2)C(c2ccc(Cl)c(Cl)c2)n2nc(C)cc2N1 (single isomer, unassigned) [Example 53 Isomer 1]")
95.7
>>> value_observed("CC1=C(C(=O)N2CCCCS2(=O)=O)C(c2ccc(Cl)c(Cl)c2)n2nc(C)cc2N1 (single isomer, unassigned) [Example 84 Isomer 2]")
7
>>> value_observed("CC1=C(C(=O)N(C)S(=O)(=O)c2ccccc2)C(c2ccc(Cl)c(Cl)c2)n2nc(C(F)(F)F)cc2N1 (single isomer, unassigned) [Example 90 Isomer 2]")
51
>>> value_observed("CC1=C(S(=O)(=O)c2ccc(F)cc2)C(c2ccc(Cl)c(Cl)c2)n2nc(C)cc2N1 (single isomer, unassigned) [Example 1 Isomer 2]")
48
>>> value_observed("CC1=C(S(=O)(=O)N2CCCC2)C(c2ccc(Cl)c(Cl)c2)n2nc(C)c(Cl)c2N1 (single isomer, unassigned) [Example 69 Isomer 2]")
40
>>> value_observed("CCN(CC)S(=O)(=O)C1=C(C)Nc2cc(C(F)(F)F)nn2C1c1ccc(Cl)c(Cl)c1 (single isomer, unassigned) [Example 64 Isomer 2]")
60
>>> value_observed("COc1ccc(S(=O)(=O)C2=C(C)Nc3cc(C)nn3C2c2nc3ccccc3n2C)cc1 (single isomer, unassigned) [Example 23 Isomer 2]")
16.6
>>> value_observed("CC1=C(C(=O)N(C)S(=O)(=O)C(C)C)C(c2ccc(Cl)c(Cl)c2)n2nc(C(F)(F)F)cc2N1 (single isomer, unassigned) [Example 96 Isomer 2]")
56
>>> value_observed("CC1=C(S(=O)(=O)c2ccc(Cl)cc2)C(c2ccc(F)cc2)n2nc(C(F)(F)F)cc2N1 (single isomer, unassigned) [Example 43 Isomer 2]")
87.3
>>> value_observed("CC1=C(S(=O)(=O)c2ccccc2)C(c2ccc(Cl)c(F)c2)n2nc(C)cc2N1 (single isomer, unassigned) [Example 7 Isomer 1]")
90.8
>>> value_observed("COc1ccccc1S(=O)(=O)C1=C(C)Nc2cc(C(F)(F)F)nn2C1c1ccc(Cl)cc1 (single isomer, unassigned) [Example 46 Isomer 2]")
74.7

---

Below: a set of entries, each annotated with reported inhibition at 0.3 µM.
- Study target: Kv1.5 (Homo sapiens)
- Assay explanation: Kv1.5 inhibition assay (IKur inhibitor assay per cited references)
- Type: cell-based
- Condition description: at 0.3 μM
Readout name: inhibition at 0.3 µM

>>> value_observed("CC1=C(S(=O)(=O)N2CCCC2)C(c2ccc(Cl)cc2)n2nc(C(F)(F)F)cc2N1 (single isomer, unassigned) [Example 67 Isomer 1]")
"60%"
>>> value_observed("COc1ccc(NS(=O)(=O)C2=C(C)Nc3cc(C)nn3C2c2ccc(Cl)c(Cl)c2)cc1 (racemic)")
"25%"
>>> value_observed("CC1=C(S(=O)(=O)c2ccc(Cl)cc2)C(CC(C)C)n2nc(C(F)(F)F)cc2N1 (single isomer, unassigned) [Example 45 Isomer 2]")
"48%"
>>> value_observed("Cc1cc2nc(C)c(S(=O)(=O)Cc3ccccc3)c(-c3ccc(Cl)c(Cl)c3)n2n1 (racemic)")
"8.5%"
